# Test system: SF-295 CNS
# Protocol summary: NCI-60 one-dose screen, 48 h
# Test conditions: 10 µM unless noted
This is part of a sample that, as a whole, favours compounds with a hit. Of some 83,000 tested, about 20% had one in any assay. Calls of active or inactive are those of the source. Rule for the calls: active = growth percent below 10; inactive = the rest.
Pick from T for active, F for inactive when you respond.

Which outcome was assigned to Cc1cccc(C)c1NC(=O)CSC(=S)N1CCN(CCOCCO)CC1 in this test?
F

Which outcome was assigned to O=C1CCC/C=C\C[C@H]2C=C(Cl)C(=O)/C2=C/C[C@H](CCCCC(F)(F)F)OC(=O)CCC/C=C\C[C@H]2C=C(Cl)C(=O)/C2=C/C[C@H](CCCCC(F)(F)F)O1 in this test?
T

Which outcome was assigned to CC(=O)Nc1cc(F)cc(C(F)(F)F)c1Cl in this test?
F

Which outcome was assigned to Nc1c2c(nc3ccc(Cl)cc13)CC(c1ccccc1)CC2=O (stereo unspecified) in this test?
F

Which outcome was assigned to CC(C)(C)n1cc(-c2ccnc(NCCCNS(=O)(=O)c3ccc(Cl)cc3)c2)c(-c2cccc(F)c2)n1 in this test?
F

Which outcome was assigned to N#CC1c2ccccc2-c2ccccc2N1C(=O)c1ccccc1 (stereo unspecified) in this test?
T

Which outcome was assigned to COc1cnc2c(c1)C(=O)c1c-2n(CCCNC(C)C)c(=O)c2cc([N+](=O)[O-])ccc12 in this test?
T

Which outcome was assigned to Cn1c(=O)c2c(nc(Br)n2CC(=O)Nc2ccc(F)cc2)n(C)c1=O in this test?
F

Which outcome was assigned to Cn1cc(-c2nc(-c3c[nH]c4ncccc34)cs2)c2cc(Br)ccc21 in this test?
F

Which outcome was assigned to N#CC1=C(N)Oc2c(sc3c(F)cccc23)C1c1ccc(Cl)cc1 (stereo unspecified) in this test?
F

Which outcome was assigned to Cc1ccncc1C(=O)O in this test?
F

Which outcome was assigned to Cc1ccc(-c2nc([P+](c3ccccc3)(c3ccccc3)c3ccccc3)c(N3CCOCC3)o2)cc1 in this test?
T

Which outcome was assigned to O=S(=O)(NCCNc1cc(-c2cn(-c3ccccc3)nc2-c2cccc(O)c2)ccn1)c1ccccc1 in this test?
F

Which outcome was assigned to CC(=O)Oc1ccccc1C(=O)/C=C/c1cccc([N+](=O)[O-])c1 in this test?
F

Which outcome was assigned to COc1cc2ncnc(Nc3ccc(OCc4cccc(F)c4)c(Cl)c3)c2cc1NC(=O)C1CCCC1 in this test?
F

Which outcome was assigned to Cc1ccnc2c(OCc3ccccc3)cccc12 in this test?
F

Which outcome was assigned to O=C(/C=C/c1cccc2ccccc12)Nc1ncc(Cc2ccccc2)s1 in this test?
T

Which outcome was assigned to COC(=O)[C@]12CC[C@@H](C)[C@H](C)[C@@H]1C1=CC[C@@H]3[C@@]4(C)C[C@@H](OC(C)=O)[C@H](OC(C)=O)[C@@](C)(COC(C)=O)[C@@H]4[C@H](O)C[C@@]3(C)[C@]1(C)CC2 in this test?
T

Which outcome was assigned to Brc1cnc2[nH]cc(-c3nnc(-c4ccccc4)o3)c2c1 in this test?
F

Which outcome was assigned to Cc1ccc(S(=O)(=O)Nc2ccc(-c3cc(-c4cccc(F)c4)c(C#N)c(N)n3)cc2)cc1 in this test?
F

Which outcome was assigned to CC(C)=CCC[C@](C)(O)[C@H]1CC[C@]2(C)[C@@H]1CC[C@@H]1[C@@]3(C)C/C(=C/c4cccc([N+](=O)[O-])c4)C(=O)C(C)(C)[C@@H]3CC[C@]12C in this test?
F

Which outcome was assigned to COc1ccc(C2(Cl)c3ccccc3N(c3ccccc3)c3ccccc32)cc1 in this test?
T

Which outcome was assigned to COc1ccc(/C=C/C(=O)NCCO)cc1 in this test?
F

Which outcome was assigned to CCSc1sc(-c2ccc(C)cc2)nc1[P+](c1ccccc1)(c1ccccc1)c1ccccc1 in this test?
T

Which outcome was assigned to CC(C)(C)c1cc(-n2c(-c3ccc(Cl)cc3)nc3cc(C(=O)Nc4ccc(Cl)cc4)ccc32)n[nH]1 in this test?
T

Which outcome was assigned to CN(C)CCCC1(c2ccc(F)cc2)OCc2cc(-c3ccc(C(F)(F)F)nc3)ccc21 (stereo unspecified) in this test?
F
